Listed here: items and their measured Kd.
Biological target: T1, Recombinant Human CLL-1 Protein (his), Acro CLA-H5245 (human, UniProt Q5QGZ9 65-265)
T1 construct: also called Analyte 1; not shown: his tag
T1 sequence (looked up): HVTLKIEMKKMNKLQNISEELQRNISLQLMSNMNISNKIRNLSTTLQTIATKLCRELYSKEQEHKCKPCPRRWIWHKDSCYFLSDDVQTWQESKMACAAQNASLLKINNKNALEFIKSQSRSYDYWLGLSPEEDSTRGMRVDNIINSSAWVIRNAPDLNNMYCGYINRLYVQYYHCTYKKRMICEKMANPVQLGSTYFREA
Test: SPR, antibody captured on Protein A chip, recombinant human CLL-1 as analyte 3.125-50 nM, 1:1 model
Value expressed in nM; do not type the unit.

Consider the following illustrative entries.
# binder, Kd, nM
data = [
    ("27H4-scFv-hFc (Fc fusion, VL-(G4S)3-VH structure with C-terminal human IgG1 Fc; also called Anti-CLL1 scFv-hIgG1; not shown: human IgG1 Fc fused at the C-terminus) scFv: DIVMSQSPSSLAVSVGEKVTMSCKSSQSLLYSDNQKNYLAWYQQKPGQSPKLLIYWASTRESGVPDRFTGSGSGTDFTLTISSVKAEDLAVYYCQQYYTYPYTFGGGTKLEIKGGGGSGGGGSGGGGSEVQLQQSGPELVKPGASVKISCKASGYSFTGYHMHWVKQSHVKSLEWIGRINPYNGAASHNQKFKDKATLTVDKSSSTAYMELHSLTSEDSAVYYCARGWDYDGGYYAMDYWGQGTSVTVSS", 3.06),
    ("humanized antibody hz27H4H1L2 (antibody, V domains shown, Heavy chain variable region hz27H4H1 with light chain variable region hz27H4L2; also called h27H4H1L2 (complete antibody)) VH: EVQLVQSGAEVKKPGASVKVSCKASGYTFTGYHMHWVRQAPGQRLEWMGRINPYNGAASHNQKFKDRVTITRDTSASTAYMELSSLRSEDTAVYYCARGWDYDGGYYAMDYWGQGTLVTVSS VL: DIVMTQSPLSLPVTPGEPASISCKSSQSLLYSDNQKNYLAWYLQKPGQSPQLLIYWASTRESGVPDRFSGSGSGTDFTLKISRVEAEDVGVYYCQQYYTYPYTFGQGTKLEIK", 1.08),
    ("23D7-scFv-hFc (Fc fusion, VL-(G4S)3-VH structure with C-terminal human IgG1 Fc; also called Anti-CLL1 scFv-hIgG1; not shown: human IgG1 Fc fused at the C-terminus) scFv: QIVLTQSPAIMSASPGEKVTMTCSASSSVSYIYWYQQKPGSSPGLLIYDTSNLASGVPVRFSGSGSGTSYSLTISRMEAEDAATYYCQQWSSFPPTFGAGTKLELKGGGGSGGGGSGGGGSQVQLQQPGSDLVRPGASVKLSCKASGYTFTRYWMHWVKQRPGHGLEWIGYIYPGSGTSNYDEKFKSKATLTVDTSSSTAYMQLSSLTSEDSAVYYCTREARYTMDYWGQGTSVTVSS", 110),
    ("humanized antibody hz27H4H1L1 (antibody, V domains shown, Heavy chain variable region hz27H4H1 with light chain variable region hz27H4L1; also called h27H4H1L1 (complete antibody)) VH: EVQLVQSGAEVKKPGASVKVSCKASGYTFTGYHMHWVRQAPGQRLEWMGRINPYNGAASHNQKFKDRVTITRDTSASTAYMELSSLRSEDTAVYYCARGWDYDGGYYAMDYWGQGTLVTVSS VL: DIQMTQSPSSLSASVGDRVTITCKSSQSLLYSDNQKNYLAWYQQKPGKAPKLLIYWASTRESGVPSRFSGSGSGTDFTLTISSLQPEDFATYYCQQYYTYPYTFGQGTKLEIK", 1.12),
]

Read the next record carefully.
# Kd (binder: 19C1-scFv-hFc (Fc fusion, VL-(G4S)3-VH structure with C-terminal human IgG1 Fc; also called Anti-CLL1 scFv-hIgG1; not shown: human IgG1 Fc fused at the C-terminus) scFv: QIVLTQSPAIMSASPGEKVTMTCSASSSVSYMYWYQQKPGSSPRLLIFDTSNLASGVPVRFSGSGSGTSYSLTISRMEAEDAATYYCQQWSSYPLTFGAGTKLELKGGGGSGGGGSGGGGSQVQLQQSGAELMKPGASVKISCKATGYTFSSYWIEWVKQRPGHGLEWIGEIFPGSGSIKYNEKFKGKATFTADTSSNTAYMQLSSLTSEDSAVHYCARGGTYNDYSLFDYWGQGTTLTVSS ) is 5.75

Sourced from patent US20220396626A1
